Target: T1, alpha-s1 casein from Bos taurus
T1 chain: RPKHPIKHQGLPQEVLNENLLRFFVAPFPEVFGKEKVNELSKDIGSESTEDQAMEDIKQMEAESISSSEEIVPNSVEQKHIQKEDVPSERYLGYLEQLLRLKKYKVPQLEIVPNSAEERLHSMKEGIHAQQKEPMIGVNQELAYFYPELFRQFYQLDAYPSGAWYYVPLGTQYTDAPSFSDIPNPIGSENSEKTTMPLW
// αs1-I CN, 24 hours, 11° C. lookup, one value per entry

Worked examples follow.
INSERT INTO results (protein, readout_label, reported) VALUES
  ('camel chymosin variant #142 (F223Q) (protein) GKVAREPLTSYLDSQYFGKIYIGTPPQEFTVVFDTGSSDLWVPSIYCKSNVCKNHHRFDPRKSSTFRNLGKPLSIHYGTGSMEGFLGYDTVTVSNIVDPNQTVGLSTEQPGEVFTYSEFDGILGLAYPSLASEYSVPVFDNMMDRHLVARDLFSVYMDRNGQGSMLTLGAIDPSYYTGSLHWVPVTLQQYWQFTVDSVTINGVAVACVGGCQAILDTGTSVLQGPSSDILKIQMAIGATENRYGEFDVNCGNLRSMPTVVFEINGRDYPLSPSAYTSKDQGFCTSGFQGDNNSELWILGDVFIREYYSVFDRANNRVGLAKAI', 'αs1-I CN, 24 hours, 11° C.', '1.75e+07 Volume'),
  ('camel chymosin variant #152 (D290G) (protein) GKVAREPLTSYLDSQYFGKIYIGTPPQEFTVVFDTGSSDLWVPSIYCKSNVCKNHHRFDPRKSSTFRNLGKPLSIHYGTGSMEGFLGYDTVTVSNIVDPNQTVGLSTEQPGEVFTYSEFDGILGLAYPSLASEYSVPVFDNMMDRHLVARDLFSVYMDRNGQGSMLTLGAIDPSYYTGSLHWVPVTLQQYWQFTVDSVTINGVAVACVGGCQAILDTGTSVLFGPSSDILKIQMAIGATENRYGEFDVNCGNLRSMPTVVFEINGRDYPLSPSAYTSKDQGFCTSGFQGGNNSELWILGDVFIREYYSVFDRANNRVGLAKAI', 'αs1-I CN, 24 hours, 11° C.', '3.33e+07 Volume');

Pending protein:
Ask | Which value of αs1-I CN, 24 hours, 11° C. has been reported for camel chymosin variant #163 (L295T) (protein) GKVAREPLTSYLDSQYFGKIYIGTPPQEFTVVFDTGSSDLWVPSIYCKSNVCKNHHRFDPRKSSTFRNLGKPLSIHYGTGSMEGFLGYDTVTVSNIVDPNQTVGLSTEQPGEVFTYSEFDGILGLAYPSLASEYSVPVFDNMMDRHLVARDLFSVYMDRNGQGSMLTLGAIDPSYYTGSLHWVPVTLQQYWQFTVDSVTINGVAVACVGGCQAILDTGTSVLFGPSSDILKIQMAIGATENRYGEFDVNCGNLRSMPTVVFEINGRDYPLSPSAYTSKDQGFCTSGFQGDNNSETWILGDVFIREYYSVFDRANNRVGLAKAI in the records?
Reply | 1.79e+07 Volume
